tested on: HeLa (cervix carcinoma); experiment: Cytostatic activity, Coulter counter; format: cell-based, human; details: Homo sapiens, HeLa; 72 h, cell number by Coulter counter; read-out: Tumour cell growth/IC50 HeLa
Lab note - cut at 80 µM for IC50: 1 (yes) if strictly below, 0 (no) if not.

O=C(NCc1ccccc1)c1cc(Cl)ccn1 [Compound 2d, 4-Chloro-N-benzylpyridine-2-carboxamide] ... 0 (no)
O=C(Nc1ccc(Oc2ccnc(C(=O)NC3CCCC3)c2)cc1)Nc1ccc(Cl)c(C(F)(F)F)c1 [Compound 4a] ... 1 (yes)
O=C(Nc1ccc(Oc2ccnc(C(=O)NCCc3ccccc3)c2)cc1)Nc1ccc(Cl)c(C(F)(F)F)c1 [Compound 4e] ... 1 (yes)

Just wondering, is IC50 of Nc1ccc(Oc2ccnc(C(=O)NCC3CCCCC3)c2)cc1 [Compound 3c] below 80 µM?
0 (no)

Just wondering, is IC50 of Nc1ccc(Oc2ccnc(C(=O)NC3CCCC3)c2)cc1 [Compound 3a] below 80 µM?
1 (yes)

Just wondering, is IC50 of O=C(NC1CCCC1)c1cc(Cl)ccn1 [Compound 2a] below 80 µM?
0 (no)

Just wondering, is IC50 of O=C(Nc1ccc(Oc2ccnc(C(=O)NC3CCCCC3)c2)cc1)Nc1ccc(Cl)c(C(F)(F)F)c1 [Compound 4b] below 80 µM?
1 (yes)

Just wondering, is IC50 of O=C(NCCc1ccccc1)c1cc(Cl)ccn1 [Compound 2e] below 80 µM?
0 (no)

Just wondering, is IC50 of Nc1ccc(Oc2ccnc(C(=O)NCc3ccccc3)c2)cc1 [Compound 3d] below 80 µM?
0 (no)

Just wondering, is IC50 of O=C(NC1CCCCC1)c1cc(Cl)ccn1 [Compound 2b] below 80 µM?
0 (no)

====

Assignment: determine reported pIC50 for the given compounds.
tested on: HeLa (cervix carcinoma); test: Cytostatic activity, Coulter counter; format: cell-based, human; conditions: Homo sapiens, HeLa; 72 h, cell number by Coulter counter; read-out: Tumour cell growth/IC50 HeLa
Numbers only, as −log10 of the molar value.

Example entries begin here.
O=C(Nc1ccc(Oc2ccnc(C(=O)NCC3CCCCC3)c2)cc1)Nc1ccc(Cl)c(C(F)(F)F)c1 ... 5.57
Nc1ccc(Oc2ccnc(C(=O)NCCc3ccccc3)c2)cc1 ... 4.41

Moving on to the next compound.
Assign pIC50 to the following record: "O=C(Nc1ccc(Oc2ccnc(C(=O)NCc3ccccc3)c2)cc1)Nc1ccc(Cl)c(C(F)(F)F)c1"
5.59

====

Assignment: determine reported IC50 for the given molecules.
tested on: MCF-7 (breast carcinoma); assay: Cytostatic activity, MTT assay; assay type: cell-based, human; conditions: Homo sapiens, MCF7, 72 h, read-out: Tumour cell growth/IC50 MCF-7
Give bare numbers, in µM.

Nc1ccc(Oc2ccnc(C(=O)NCc3ccccc3)c2)cc1 ... 29

Return reported IC50 values for all items listed beneath this line.
1. O=C(NCCc1ccccc1)c1cc(Cl)ccn1
2. O=C(Nc1ccc(Oc2ccnc(C(=O)NCC3CCCCC3)c2)cc1)Nc1ccc(Cl)c(C(F)(F)F)c1

57
2

Assign IC50 to the following record: "O=C(Nc1ccc(Oc2ccnc(C(=O)NCCc3ccccc3)c2)cc1)Nc1ccc(Cl)c(C(F)(F)F)c1"
2

====

tested on: CEM (human lymphoma); assay: Cytostatic activity, Coulter counter; assay type: cell-based; conditions: Homo sapiens; 72 h, cell number by Coulter counter; read-out: Tumour cell growth/IC50 CEM
Assignment: determine reported IC50 for the given compounds.
Numbers only, in µM.

Nc1ccc(Oc2ccnc(C(=O)NCc3ccccc3)c2)cc1 [Compound 3d] ... 94

Return reported IC50 values for all items listed beneath this line.
1. O=C(Nc1ccc(Oc2ccnc(C(=O)NCCc3ccccc3)c2)cc1)Nc1ccc(Cl)c(C(F)(F)F)c1 [Compound 4e]
2. Nc1ccc(Oc2ccnc(C(=O)NCCc3ccccc3)c2)cc1 [Compound 3e]
3. O=C(Nc1ccc(Oc2ccnc(C(=O)NCc3ccccc3)c2)cc1)Nc1ccc(Cl)c(C(F)(F)F)c1 [Compound 4d]

1. 2.5
2. 42
3. 4.3

Return reported IC50 values for all items listed beneath this line.
1. O=C(Nc1ccc(Oc2ccnc(C(=O)NC3CCCC3)c2)cc1)Nc1ccc(Cl)c(C(F)(F)F)c1 [Compound 4a]
2. O=C(Nc1ccc(Oc2ccnc(C(=O)NC3CCCCC3)c2)cc1)Nc1ccc(Cl)c(C(F)(F)F)c1 [Compound 4b]
3. O=C(Nc1ccc(Oc2ccnc(C(=O)NCC3CCCCC3)c2)cc1)Nc1ccc(Cl)c(C(F)(F)F)c1 [Compound 4c]

1. 4.2
2. 3.6
3. 2

====

tested on: CEM (human lymphoma); assay: Cytostatic activity, Coulter counter; assay type: cell-based; settings: 72 h, cell number by Coulter counter; read-out: Tumour cell growth/IC50 CEM
Property Label: pIC50
Answers are plain numbers, as −log10 of the molar value.

Assign pIC50 to the following record: CNC(=O)c1cc(Oc2ccc(NC(=O)Nc3ccc(Cl)c(C(F)(F)F)c3)cc2)ccn1 [Sorafenib]
5.47

====

system: CEM (human lymphoma); test: Cytostatic activity, Coulter counter; assay type: cell-based; details: Homo sapiens; 72 h, cell number by Coulter counter; read-out: Tumour cell growth/IC50 CEM
Property Label: IC50

Return reported IC50 values for all items listed beneath this line.
1. Nc1ccc(Oc2ccnc(C(=O)NC3CCCC3)c2)cc1 [Compound 3a]
2. O=C(NC1CCCCC1)c1cc(Cl)ccn1 [Compound 2b]
3. Nc1ccc(Oc2ccnc(C(=O)NCC3CCCCC3)c2)cc1 [Compound 3c]
4. Nc1ccc(Oc2ccnc(C(=O)NC3CCCCC3)c2)cc1 [Compound 3b]
5. O=C(NCCc1ccccc1)c1cc(Cl)ccn1 [Compound 2e]

1. ≥ 100 µM
2. > 100 µM
3. > 100 µM
4. > 100 µM
5. > 100 µM

Return reported IC50 values for all items listed beneath this line.
1. O=C(NC1CCCC1)c1cc(Cl)ccn1 [Compound 2a]
2. O=C(NCC1CCCCC1)c1cc(Cl)ccn1 [Compound 2c]
3. O=C(NCc1ccccc1)c1cc(Cl)ccn1 [Compound 2d, 4-Chloro-N-benzylpyridine-2-carboxamide]

1. > 100 µM
2. > 100 µM
3. ≥ 100 µM
